These data points were gathered from ChEMBL document CHEMBL3817826.

Test: Induction of H2S release from compound in IMDM at 100 uM incubated for 1 to 24 hrs using DNS-Az by fluorimetric assay-based HPLC analysis
Type: physicochemical
Observed property: Activity

- Molecule: "C=CCSSCCC(=O)OCC(=O)[C@]1(O)Cc2c(O)c3c(c(O)c2[C@@H](O[C@H]2C[C@H](N)[C@H](O)[C@H](C)O2)C1)C(=O)c1c(OC)cccc1C3=O.Cl"
  Activity: "Not Active"
- Molecule: "COc1cccc2c1C(=O)c1c(O)c3c(c(O)c1C2=O)C[C@@](O)(C(=O)COC(=O)c1ccc(C(N)=S)cc1)C[C@@H]3O[C@H]1C[C@H](N)[C@H](O)[C@H](C)O1.Cl"
  Activity: "Not Active"
- Molecule: "COc1cccc2c1C(=O)c1c(O)c3c(c(O)c1C2=O)C[C@@](O)(C(=O)COC(=O)c1csc(=S)s1)C[C@@H]3O[C@H]1C[C@H](N)[C@H](O)[C@H](C)O1.Cl"
  Activity: "Not Active"
- Molecule: "COc1cccc2c1C(=O)c1c(O)c3c(c(O)c1C2=O)C[C@@](O)(C(=O)COC(=O)c1ccc(-c2ssc(=S)c2-c2ccccc2)cc1)C[C@@H]3O[C@H]1C[C@H](N)[C@H](O)[C@H](C)O1.Cl"
  Activity: "Not Active"
- Molecule: "COc1cccc2c1C(=O)c1c(O)c3c(c(O)c1C2=O)C[C@@](O)(C(=O)COC(=O)COc1ccc(-c2cc(=S)ss2)cc1)C[C@@H]3O[C@H]1C[C@H](N)[C@H](O)[C@H](C)O1.Cl"
  Activity: "Not Active"

Now take the following molecule into account.
molecule C=CCSCC(NC(C)=O)C(=O)OCC(=O)[C@]1(O)Cc2c(O)c3c(c(O)c2[C@@H](O[C@H]2C[C@H](N)[C@H](O)[C@H](C)O2)C1)C(=O)c1c(OC)cccc1C3=O.Cl (some centres not stated) , Activity observed: Not Active
